- method notes: Microsomal incubations, human liver microsomes
- Format: in vitro ADME
- measurement context: 1 μM, 30 min
Binary call on HLM % metabolized after 30 min with cut-off 60%: strictly below means 1, and equality or higher means 0.

Record excerpt, results attached:
[
  {
    "molecule": "CCC(C)CNCC(=O)N1CCc2ccccc2C1c1ccccc1 (centres unmarked)",
    "classification": 1
  },
  {
    "molecule": "CC(=O)N1CCc2sccc2C1c1ccccc1 (centres unmarked)",
    "classification": 0
  },
  {
    "molecule": "CCC(C)CNCC(=O)N1CCc2sccc2C1c1cccc(C)n1 (centres unmarked)",
    "classification": 1
  },
  {
    "molecule": "CCC(C)CNCC(=O)N1CCc2sccc2C1c1cccc(C)c1 (centres unmarked)",
    "classification": 0
  }
]

Okay, now this molecule:
Criterion: HLM % metabolized after 30 min strictly below 60%. Is it met by CC(=O)N1CCc2ccccc2C1c1ccccc1 (centres unmarked) ?
1

---

Would you mind telling me the reported recovery at 16 h, 10 µM of each entry?
- method notes: PAMPA parallel artificial membrane permeability assay
- measurement context: PAMPA, pH 6.5

[
  {
    "molecule": "CCC(C)CNCC(=O)N1CCc2sccc2C1c1cccc(C)n1 (stereo not drawn) [Compound 22]",
    "recovery at 16 h, 10 µM": "< 23%"
  },
  {
    "molecule": "CCC(C)CNCC(=O)N1CCc2sccc2C1c1cccc(C)c1 (stereo not drawn) [Compound 17]",
    "recovery at 16 h, 10 µM": "< 10%"
  }
]

Okay, now this molecule:
Endpoint output: recovery at 16 h, 10 µM of C=CCNCC(=O)N1CCc2sccc2C1COc1ccc(Cl)cc1 (stereo not drawn) [Compound 2] . Value?
< 10%

---

Would you mind telling me the reported IC50 of each entry?
- target under test: purified HHAT (Homo sapiens, UniProt Q5VTY9)
- Sequence (Q5VTY9 whole entry): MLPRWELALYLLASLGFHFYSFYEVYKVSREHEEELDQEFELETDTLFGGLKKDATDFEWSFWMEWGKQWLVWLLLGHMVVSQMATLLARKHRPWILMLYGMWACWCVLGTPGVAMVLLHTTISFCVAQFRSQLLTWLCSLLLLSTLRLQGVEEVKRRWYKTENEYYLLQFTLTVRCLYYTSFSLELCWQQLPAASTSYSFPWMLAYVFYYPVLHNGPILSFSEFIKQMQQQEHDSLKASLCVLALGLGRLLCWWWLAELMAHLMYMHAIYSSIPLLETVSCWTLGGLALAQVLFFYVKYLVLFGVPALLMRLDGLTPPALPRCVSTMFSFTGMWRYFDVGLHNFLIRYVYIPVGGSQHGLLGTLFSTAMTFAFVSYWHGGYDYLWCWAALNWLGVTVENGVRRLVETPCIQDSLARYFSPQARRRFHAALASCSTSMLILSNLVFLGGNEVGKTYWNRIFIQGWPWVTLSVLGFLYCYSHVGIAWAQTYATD

Guide cases for IC50, answers given:
[
  {
    "molecule": "CCC(C)CNCC(=O)N1CCCCC1c1ccccn1 (stereo not drawn) [Compound 50]",
    "IC50": "> 25 µM"
  },
  {
    "molecule": "Cc1cccc(C2NCCc3sccc32)c1 (stereo not drawn) [Compound 14]",
    "IC50": "> 25 µM"
  },
  {
    "molecule": "CCC(C)CNCC(=O)N1CCc2cc(OC)c(OC)cc2C1c1ccccc1 (stereo not drawn) [Compound 44]",
    "IC50": "> 100 µM"
  },
  {
    "molecule": "C=CC(=O)N1CCCCC1c1ccccc1 (stereo not drawn) [Compound 48]",
    "IC50": "> 25 µM"
  },
  {
    "molecule": "CC(=S)N1CCc2sccc2C1c1ccccc1 (stereo not drawn) [Compound 6]",
    "IC50": "> 25 µM"
  }
]

Okay, now this molecule:
Value wanted: IC50 (purified HHAT (Homo sapiens, UniProt Q5VTY9)) of entry N[C@H](C(=O)N1CCc2sccc2C1c1ccccc1)c1ccccc1 (stereo partly drawn) [Compound 10]
> 25 µM

---

- Test system: HH signaling (HEK293a SHH+ conditioned media on SHH-Light2 cells)
- method notes: Light2 dual-luciferase cell-based HH signaling assay (Firefly)
- measurement context: Firefly luciferase, Light2 cells; read-out: HH signaling inhibition EC50 (CI95)
readout label: EC50

[
  {
    "compound": "Cc1cccc([C@@H]2c3ccsc3CCN2C(=O)CNCC(C)C)n1",
    "target under test": "HH signaling (HEK293a SHH+ conditioned media on SHH-Light2 cells)",
    "EC50": "> 30 µM"
  },
  {
    "compound": "CCC(C)CNCC(=O)N1CCc2sccc2C1c1ccccc1OC (stereo not drawn)",
    "target under test": "HH signaling (HEK293a SHH+ conditioned media on SHH-Light2 cells)",
    "EC50": "> 30 µM"
  }
]

Okay, now this compound:
Endpoint output: EC50 of COc1ccccc1C1c2ccsc2CCN1C(C)=O (stereo not drawn) . Value?
> 30 µM
